- targetOrSystem: Cytochrome P450 3A4 (Homo sapiens)
- assayExplanation: qHTS Assay for Activators of Cytochrome P450 3A4 (AID 885); note: nearly all actives have a fitted effect of over 65% in size
- measurementSetup: recombinant CYP3A4, Luciferin-PPXE luminescence, 60 min; series mostly up to 57.1 µM
Active and inactive are the calls of the source. Calls come from the whole dose curve; as a rule, active = well fitted activation curve with a large enough effect; inconclusive = small, poorly fitted or top-dose-only effect; inactive = no such curve, though single readings can be large or run the other way.
Bench note: report the call from active, inactive

These solved cases illustrate the format of a correct answer.
molecule	assignedClass
C#C[C@@]1(OC(C)=O)CC[C@@H]2[C@@H]3CCC4=C[C@@H](OC(C)=O)CC[C@H]4[C@H]3CC[C@]21C	active
C/C(=C(/CCO)SSC[C@@H]1CCCO1)N(C=O)Cc1cnc(C)nc1N	inactive
CCC(=O)O[C@@]1(C(=O)CCl)C(C)CC2C3CCC4=CC(=O)C=C[C@@]4(C)[C@]3(F)C(O)C[C@]21C (some centres not stated)	inactive
CC(=O)OC1CC(OC(C)=O)[C@]2(C)C(CC(=O)[C@]3(C)C2CC[C@@]2(C)C(C(=O)O)OC(=O)C4OC423)C1(C)C (some centres not stated)	inactive
CCN(CC)Cc1ccc(Nc2ccnc3cc(Cl)ccc23)cc1O	active

Attention now turns to another entry.
Outcome? CC(=O)OCC1=C(C(=O)O)N2C(=O)C(NC(=O)Cc3cccs3)C2SC1 (configuration not stated)
inactive

###

- Test system: CP250
- assayExplanation: qHTS profiling for inhibitors of Plasmodium falciparum proliferation (AID 504749); note: nearly all actives have a fitted effect of over 60% in size
- measurementSetup: P. falciparum in erythrocytes, SYBR Green DNA, 72 h; series mostly up to 12.8 µM
Inconclusive results are not listed. Activity calls are given as the source filed them. Calls come from the whole dose curve; as a rule, active = well fitted inhibition curve with a large enough effect; inconclusive = small, poorly fitted or top-dose-only effect; inactive = flat fitted curve, though single readings scatter.
Could you please pick one outcome from this set? active, inactive

molecule	targetOrSystem	assignedClass
NCc1ccccc1CC(=O)N[C@@H]1C(=O)N2C(C(=O)O)=C(CSc3nnnn3CC(=O)O)CS[C@@H]12	CP250	inactive
CCOC(=O)C1=CC(OC(CC)CC)C(NC(C)=O)C(N)C1 (configuration not stated)	CP250	inactive
CC(=O)OCC(=O)[C@@]1(O)CC[C@@H]2[C@H]3CCC4=CC(=O)C=C[C@]4(C)[C@]3(F)[C@@H](O)C[C@@]21C	CP250	inactive
CC1(C)OC2CO[C@]3(COS(N)(=O)=O)OC(C)(C)OC3C2O1 (some centres not stated)	CP250	inactive
COc1cc(N[C@@H](C)CCCN)c2ncccc2c1	CP250	active
CCOC(=O)O[C@]1(C(=O)COC(=O)CC)CC[C@@H]2[C@@H]3CCC4=CC(=O)C=C[C@@]4(C)[C@H]3[C@H](O)C[C@]21C	CP250	inactive

Then there is this molecule:
Can you look up the reported call for CCC1OC(=O)C(C)[C@@H](O[C@H]2C[C@@](C)(OC)C(O)C(C)O2)C(C)[C@@H](O[C@@H]2OC(C)CC(N(C)C)C2O)[C@@](C)(O)CC(C)C(=O)[C@@H](C)C(O)[C@]1(C)O (some centres not stated) for me?
inactive

###

For each of the compounds below, state its activity change, negative = inhibition.
- assayExplanation: qHTS Assay for Lipid Storage Modulators (AID 1519); note: % is set by controls: 0 for no effect and ±100 for the full control effect
- measurementSetup: Drosophila S3 cells, BODIPY lipid droplet/cell ratio, laser cytometry; at 57.5 µM (top of the series); cells loaded with oleic acid
Results filed as inconclusive are left out. Peptide text beside a SMILES is read from it.
Give bare numbers, in %.

Some solved entries appear below for comparison.
compound	resultUnits	recordedNumber
CC(C)=CCc1c(O)cc2oc(C)cc(=O)c2c1O	%	2.12
CC1(C)C=Cc2cc3ccc(=O)oc3cc2O1	%	11.6
CNC1CC(N)[C@H](O)[C@@H](O[C@@H]2OC(CO)C3OC4(OC(C(N)CO)C(O)C(O)C4O)O[C@@H]3[C@H]2O)C1O (some centres undefined)	%	3.46
COC(=O)[C@H]1[C@@H]2C[C@@H]3c4[nH]c5ccccc5c4CCN3C[C@H]2CC[C@H]1O	%	4.52
CC(=O)OC1CC[C@@]2(C)C3CC(=O)[C@]4(C)C(C(C)=O)=CCC4C3CC[C@H]2C1 (some centres undefined)	%	-12.8

State the recorded activity change, negative = inhibition for every item in the following list.
1. CC(C)=CCc1c2c(c(O)c3c(=O)c(O)c(-c4ccccc4)oc13)C=CC(C)(C)O2
2. CCCCCc1c2c(cc(O)c1C(=O)O)OC(=O)c1c(cc(OC)cc1C(=O)CCCC)O2
3. CC(=O)OC/C=C(\C)CC/C=C(\C)CC/C=C(\C)CC/C=C(\C)CC/C=C(\C)CC/C=C(\C)CC/C=C(\C)CC/C=C(\C)CCC=C(C)C
4. COC(=O)C(Cc1ccccc1)NC(=O)C(N)CC(=O)O (stereo not drawn) (H-Asp-Phe-OMe; configuration not given here)
5. COc1cc(OC)c(C(C)=O)c(O)c1C
6. O=C1CC(c2ccc(O)c(O)c2)Oc2cc(O)cc(O)c21 (centres undefined)
7. CC(C)CCCC(C)C1CCC2C3CC=C4CC(O)CC[C@@]4(C)C3CC[C@@]12C (some centres undefined)
8. CC1CC2C3CCC4=CC(=O)C=C[C@]4(C)[C@@]3(Cl)C(O)C[C@]2(C)C1(OC(=O)c1ccco1)C(=O)CCl (some centres undefined)

1: 0.956; 2: 7.58; 3: 1.76; 4: 5.29; 5: 17; 6: 17.7; 7: 2.88; 8: 12.6
